- Test system: T-47D breast
- procedure.details: NCI tumour cell line growth inhibition, 48 h

[
  {
    "compound": "COc1ccc(Nc2c[nH]c(=O)[nH]c2=O)cc1",
    "TGI": "> 100 µM"
  },
  {
    "compound": "O=c1c(S(=O)(=O)Oc2ccccc2)coc2cc(F)ccc12",
    "TGI": "> 100 µM"
  },
  {
    "compound": "COC(=O)[C@H](Cc1ccccc1)NC(=O)[C@@H](OC)[C@@H]1Cc2cc3cc(OC4CC(OC5CC(O)C(O)C(C)O5)C(O)C(C)O4)c(C)c(O)c3c(O)c2C(=O)[C@H]1OC1CC(OC2CC(OC3CC(C)(O)C(O)C(C)O3)C(O)C(C)O2)C(O)C(C)O1 (stereo not given in full)",
    "TGI": "> 14.3 µM"
  },
  {
    "compound": "COc1cnnc2c(C)c(-c3ccccc3)nn12",
    "TGI": "> 100 µM"
  },
  {
    "compound": "Cc1csc2n(C)c(=O)c3ccccc3[n+]12",
    "TGI": "> 100 µM"
  },
  {
    "compound": "COc1cc(C)cc(OC)c1/C=C/C(=O)O",
    "TGI": "> 100 µM"
  },
  {
    "compound": "C=C1[C@H](OCC(C)C)[C@@H](OC(=O)C(C)CC)[C@@H](O)C(C)(C)/C=C/[C@H](C)C(=O)[C@@]2(O)C[C@H](C)[C@H](O)[C@@H]2[C@H]1OC(=O)C(C)CC (stereo not given in full)",
    "TGI": "> 20 µM"
  },
  {
    "compound": "Cc1ccc(-n2c(-c3ccc(Cl)cc3)cs/c2=N\\NC(=O)COc2n[nH]c(=O)c3ccccc23)cc1",
    "TGI": "> 100 µM"
  },
  {
    "compound": "CCOC(=O)C12C(=O)CCN1CCc1ccccc1C2C (stereo not given)",
    "TGI": "> 100 µM"
  },
  {
    "compound": "CCCCc1nc2cc(/C=C/C(=O)NO)ccc2n1CCN(CC)CC",
    "TGI": "> 47.4 µM"
  }
]

Every entry's value here was drawn from PubChem BioAssay (NCI).
